target: TLR1/TLR2 complex (equimolar mixture of purified hTLR1 and hTLR2) (human, UniProt Q15399 25-580; O60603 21-588); experiment: fluorescence polarisation
Sequence (Q15399 25-580, chain 1 of 2): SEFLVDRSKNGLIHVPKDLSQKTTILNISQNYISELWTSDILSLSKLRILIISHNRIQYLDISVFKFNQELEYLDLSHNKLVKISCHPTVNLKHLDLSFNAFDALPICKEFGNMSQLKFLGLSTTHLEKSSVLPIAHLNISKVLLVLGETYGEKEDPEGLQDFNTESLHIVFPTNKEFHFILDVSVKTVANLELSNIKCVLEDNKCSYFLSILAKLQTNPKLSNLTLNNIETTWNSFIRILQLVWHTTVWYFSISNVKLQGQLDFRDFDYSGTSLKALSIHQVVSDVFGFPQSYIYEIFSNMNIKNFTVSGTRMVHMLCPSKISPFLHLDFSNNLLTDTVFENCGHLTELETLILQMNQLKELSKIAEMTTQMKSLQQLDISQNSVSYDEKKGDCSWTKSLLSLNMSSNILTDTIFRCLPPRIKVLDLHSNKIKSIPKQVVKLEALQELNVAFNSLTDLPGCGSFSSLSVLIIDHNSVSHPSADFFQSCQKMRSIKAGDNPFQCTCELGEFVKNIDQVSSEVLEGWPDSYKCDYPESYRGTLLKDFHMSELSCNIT
Sequence (O60603 21-588, chain 2 of 2): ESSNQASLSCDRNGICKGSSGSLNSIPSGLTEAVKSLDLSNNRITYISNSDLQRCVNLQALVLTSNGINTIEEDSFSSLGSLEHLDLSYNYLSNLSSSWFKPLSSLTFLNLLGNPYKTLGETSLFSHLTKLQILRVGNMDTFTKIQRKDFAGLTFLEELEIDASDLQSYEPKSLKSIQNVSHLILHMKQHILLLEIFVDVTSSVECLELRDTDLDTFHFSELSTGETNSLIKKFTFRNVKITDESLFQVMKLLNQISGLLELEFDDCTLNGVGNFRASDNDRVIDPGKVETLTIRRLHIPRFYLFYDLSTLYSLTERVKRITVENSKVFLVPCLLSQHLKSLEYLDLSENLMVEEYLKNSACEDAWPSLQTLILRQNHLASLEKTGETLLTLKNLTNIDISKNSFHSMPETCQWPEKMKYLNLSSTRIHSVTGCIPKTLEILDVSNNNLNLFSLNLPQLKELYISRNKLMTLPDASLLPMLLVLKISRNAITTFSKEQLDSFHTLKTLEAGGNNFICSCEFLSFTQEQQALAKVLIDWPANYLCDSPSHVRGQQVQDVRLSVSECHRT
Non-standard residues stand in square brackets, D forms with d. No end group written: not given here. Pam3Cys = Cys carrying the Pam3 acyl chains of Pam3CSK4
Property measured: pKd
# log scale: pKd equals minus log10 of the concentration in mol/L

Field pKd (entry [Pam3Cys]SKKKK (also: rhodamine label, site not given here) [rhodamine-labeled Pam3CSK4] ) reads 7.46
